SYSTEM UNDER TEST: Cry2 PHR (L348F)-p65AD-NLSx2 fusion construct as released from the TetR (I194T, 1-206)-CIB1 (-NLS)-T2A-Cry2 PHR (L348F)-p65AD-NLSx2 fusion construct
Sequence (Q96524 other isoform, or with tags, fused parts or gaps L348F I194T L348F L348F I194T L348F): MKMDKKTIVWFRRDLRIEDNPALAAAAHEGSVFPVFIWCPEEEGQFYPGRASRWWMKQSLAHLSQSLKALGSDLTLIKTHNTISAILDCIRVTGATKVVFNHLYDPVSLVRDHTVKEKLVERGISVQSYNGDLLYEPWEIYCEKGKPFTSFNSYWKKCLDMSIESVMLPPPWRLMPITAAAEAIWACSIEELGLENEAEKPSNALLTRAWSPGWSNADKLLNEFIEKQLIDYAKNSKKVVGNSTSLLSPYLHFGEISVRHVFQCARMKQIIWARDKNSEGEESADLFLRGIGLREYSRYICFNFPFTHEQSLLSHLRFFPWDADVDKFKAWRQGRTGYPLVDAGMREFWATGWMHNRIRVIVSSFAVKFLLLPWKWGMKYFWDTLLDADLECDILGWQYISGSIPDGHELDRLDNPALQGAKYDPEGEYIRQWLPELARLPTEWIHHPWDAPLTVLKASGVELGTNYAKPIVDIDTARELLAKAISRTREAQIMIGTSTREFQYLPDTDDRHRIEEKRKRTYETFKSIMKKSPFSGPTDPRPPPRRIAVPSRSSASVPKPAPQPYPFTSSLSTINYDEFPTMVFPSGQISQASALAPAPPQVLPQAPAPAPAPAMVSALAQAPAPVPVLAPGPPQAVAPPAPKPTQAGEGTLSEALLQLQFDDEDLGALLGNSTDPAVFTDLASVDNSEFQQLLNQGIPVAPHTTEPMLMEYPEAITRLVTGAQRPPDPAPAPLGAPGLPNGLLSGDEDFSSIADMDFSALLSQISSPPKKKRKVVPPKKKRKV
TEST METHOD NOTES: cell-based or functional assay
QUANTITY: Average of the Light/Dark ratio, Dox 0 ng/mL
# answer = number (no unit)

rTetR (I194T, rtTA mutation, 1-206)-CIB1 (-NLS) from the T2A construct (protein, part only; not given: Leftover T2A residues, part only) chain, part: MARLDKSKVINSALELLNEVGIEGLTTRKLAQKLGVEQPTLYWHVKNKRALLDALAIEMLDRHHTHFCPLKGESWQDFLRNNAKSFRCALLSHRNGAKVHSDTRPTEKQYETLENQLAFLCQQGFSLENALYALSAVGHFTLGCVLEDQEHQVAKEERETPTTDSMPPLLRQAIELFDHQGAEPAFLFGLELITCGLEKQLKCESGSPKKKHMEFNGAIGGDLLLNFPDMSVLERQRAHLKYLNPTFDSPLAGFFADSSMITGGEMDSYLSTAGLNLPMMYGETTVEGDSRLSISPETTLGTGNFKAAKFDTETKDCNEAAKKMTMNRDDLVEEGEEEKSKITEQNNGSTKSIKKMKHKAKKEENNFSNDSSKVTKELEKTDYI: 3.2

Proceed to the following item.
For record rTetR (I194T, S2 mutation, 1-206)-CIB1 (-NLS) from the T2A construct (protein, part only; not given: Leftover T2A residues, part only) chain, part: MARLDKSKVINSALELLNGVGIEGLTTRKLAQKLGVEQPTLYWHVKNKRALLDALPIEMLDRHHTHFCPLEGESWQDFLRNNAKSFRCALLSHRDGAKVHLGTRPTEKQYETLENQLAFLCQQGFSLENALYALSAVGHFTLGCVLEEQEHQVAKEERETPTTDSMPPLLRQAIELFDRQGAEPAFLFGLELITCGLEKQLKCESGSPKKKHMEFNGAIGGDLLLNFPDMSVLERQRAHLKYLNPTFDSPLAGFFADSSMITGGEMDSYLSTAGLNLPMMYGETTVEGDSRLSISPETTLGTGNFKAAKFDTETKDCNEAAKKMTMNRDDLVEEGEEEKSKITEQNNGSTKSIKKMKHKAKKEENNFSNDSSKVTKELEKTDYI the listed Average of the Light/Dark ratio, Dox 0 ng/mL is 2.2
